- measurement_description: recombinant barcode read abundance after kanamycin selection (control-corrected) (log10(CPM+1)); higher = more efficient recombination; sequences stand for … in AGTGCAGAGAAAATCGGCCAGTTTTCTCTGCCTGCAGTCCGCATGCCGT…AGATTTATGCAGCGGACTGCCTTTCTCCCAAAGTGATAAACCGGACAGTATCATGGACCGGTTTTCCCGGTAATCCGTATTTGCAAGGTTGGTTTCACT; site = the 11-nt target;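 also: IS621 recombinase and bridge RNA in Escherichia coli cells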
Think of 0.06 as a floor: if recombinant barcode read abundance (log10) stands on it or above, it is Satisfied; beneath it, Not satisfied.

Q: Does the reported recombinant barcode read abundance (log10) for AGCTCATCTTGGGTTCTAACCTGTTGCCT (site AGCTCACCTAG) fall at or above the 0.06 mark?
Result: Not satisfied

Q: Quick check: does AGGCATCCTTGGGTTCTAACCTGTTGCCT (site ACGCATCCTAG) have recombinant barcode read abundance (log10) greater than or equal to 0.06?
Result: Satisfied

Q: Could you tell me if the measured recombinant barcode read abundance (log10) of AGACCATCTTGGGTTCTAACCTGTTGCCT (site AGATCATCTAA) reaches 0.06 or more?
Result: Satisfied

Q: Can CTCGGATCTTGGGTTCTAACCTGTTGCTG (site CTCGGATCTCA) be said to have recombinant barcode read abundance (log10) at or above 0.06?
Result: Satisfied

* * *

List of recombinant barcode read abundance (log10) values.
- measurement_description: recombinant barcode read abundance after kanamycin selection (control-corrected) (log10(CPM+1)); higher = more efficient recombination; sequences stand for … in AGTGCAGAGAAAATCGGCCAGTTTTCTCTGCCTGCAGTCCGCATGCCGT…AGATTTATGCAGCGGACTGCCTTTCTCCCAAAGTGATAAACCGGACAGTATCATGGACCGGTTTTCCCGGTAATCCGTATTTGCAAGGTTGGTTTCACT; site = the 11-nt target
Answer as a number with no unit attached.

Illustrative cases are given below, each with its answer.
seq_text: GCAATGTCTTGGGTTCTAACCTGTTGCCT (site GTAATGTCTAG)
reading: 0.443
--
seq_text: AAGCAAACTTGGGTTCTAACCTGTTGCCT (site AAGCAAACTAG)
reading: 0.66
--
seq_text: TCCGAGCCTTGGGTTCTAACCTGTTGCGT (site TCCGAGCCTAT)
reading: 1.03
--
seq_text: CTAACTCCTTGGGTTCTAACCTGTTGCAT (site CTAATTCCTAT)
reading: 0.0675
--
seq_text: AAGACAGCTTGGGTTCTAACCTGTTGCCT (site AAGATAGCTAG)
reading: 0.0189

Q: Requested field: recombinant barcode read abundance (log10). Item: TTAGGGGCTTGGGTTCTAACCTGTTGCCT (site TTAGGGTCTAG)
Result: 0.0155

Q: Reported recombinant barcode read abundance (log10), sequence CTCGGAACTTGGGTTCTAACCTGTTGCCT (site CTCGGACCTAG) : ____
Result: 0.257

Q: // recombinant barcode read abundance (log10) lookup, key: AAACTCGCTTGGGTTCTAACCTGTTGCCT (site AAAATCTCTAG)
Result: 0.322

Q: What does the record list as recombinant barcode read abundance (log10) for CTATTCGCTTGGGTTCTAACCTGTTGCCT (site CTATTCGCTAG) ?
Result: 1.49

Q: Suppose we examine the sequence TGGAGAGCTTGGGTTCTAACCTGTTGCAG (site TGGAGAGCTCT) ; what recombinant barcode read abundance (log10) value has been reported?
Result: 2.3

Q: // recombinant barcode read abundance (log10) lookup, key: ACCCAATCTTGGGTTCTAACCTGTTGCCT (site ACCCAAGCTAG)
Result: 0.207

Q: What does the data say about its recombinant barcode read abundance (log10)? Entry: TAAGTGTCTTGGGTTCTAACCTGTTGCCT (site TAAGTGTCTAG)
Result: 2.56

Q: Entry AGGTCCTCTTGGGTTCTAACCTGTTGCTT (site AGGTCCTCTAC) has what recombinant barcode read abundance (log10)?
Result: 0.715
